Source listed as ChEMBL document CHEMBL3596090.

- methodSummary: Kinetic aqueous solubility of the compound
- Assay type: physicochemical
- conditionsUsed: buffer; read-out: Kinetic_solubility
experimentalReadout: solubility kinetic (µg/mL)
Value expressed in µg/mL; do not type the unit.

Below are worked cases with known answers.
[2H]C([2H])([2H])N(C(=O)c1c(F)cccc1Cl)c1ccc(-c2cc(NC(C)=O)nn2C(C)C2CC2)cc1N1CC2CC2C1 (centres undefined): 0.5
[2H]C([2H])([2H])N(C(=O)c1c(Cl)cccc1Cl)c1ccc(-c2cc(NC(C)=O)nn2C(C)C)cc1N1CC2CC2C1 (centres undefined): 0.8

Query compound follows.
stdin: I would be grateful if you could share the reported solubility kinetic for [2H]C([2H])([2H])N(C(=O)c1c(F)cccc1Cl)c1ccc(-c2cc(NC(C)=O)nn2CC2CC2)cc1N1CC2CC2C1 (centres undefined) .
stdout: 10.1
